Molecular target: T1, USP38, Q8NB14
T1 chain: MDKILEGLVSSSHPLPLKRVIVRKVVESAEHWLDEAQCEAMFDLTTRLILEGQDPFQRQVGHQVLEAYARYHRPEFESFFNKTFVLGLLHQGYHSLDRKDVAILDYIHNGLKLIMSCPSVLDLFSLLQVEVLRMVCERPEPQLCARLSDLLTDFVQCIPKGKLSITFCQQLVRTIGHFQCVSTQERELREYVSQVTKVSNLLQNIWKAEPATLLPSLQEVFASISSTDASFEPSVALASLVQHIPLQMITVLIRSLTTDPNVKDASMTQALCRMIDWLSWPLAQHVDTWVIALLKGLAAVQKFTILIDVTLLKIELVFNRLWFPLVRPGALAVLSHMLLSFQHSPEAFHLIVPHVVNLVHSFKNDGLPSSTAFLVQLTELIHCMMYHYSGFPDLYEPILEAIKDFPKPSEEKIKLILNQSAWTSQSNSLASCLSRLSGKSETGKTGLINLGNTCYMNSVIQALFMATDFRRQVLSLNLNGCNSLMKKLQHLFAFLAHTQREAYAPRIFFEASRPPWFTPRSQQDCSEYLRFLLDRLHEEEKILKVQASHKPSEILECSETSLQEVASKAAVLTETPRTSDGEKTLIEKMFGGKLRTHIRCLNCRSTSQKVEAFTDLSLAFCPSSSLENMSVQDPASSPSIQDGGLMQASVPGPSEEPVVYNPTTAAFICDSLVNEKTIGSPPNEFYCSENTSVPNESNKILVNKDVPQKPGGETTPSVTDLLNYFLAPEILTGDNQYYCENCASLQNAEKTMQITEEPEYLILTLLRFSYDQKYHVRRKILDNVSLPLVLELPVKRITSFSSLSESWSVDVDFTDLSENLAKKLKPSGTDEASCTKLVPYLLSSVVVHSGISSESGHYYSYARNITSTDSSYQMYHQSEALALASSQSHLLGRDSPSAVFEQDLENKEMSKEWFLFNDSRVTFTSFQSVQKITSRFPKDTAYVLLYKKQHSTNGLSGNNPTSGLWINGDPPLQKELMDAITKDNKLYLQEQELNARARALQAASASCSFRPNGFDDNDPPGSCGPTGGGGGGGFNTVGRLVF
Assay: median log2 fold change of GCK-ALFA target abundance (FLAG IP / Myc IP barcode read proportion) (log2 ratio); each designed protein is fused to an ALFA-tag nanobody in HEK293 cells to bring the named protein to FLAG-tagged glucokinase (GCK); Myc marks an untargeted standard; higher = target protein stabilised (more abundant)
Conditions: target protein: 3xFLAG-MCP-GCK-ALFA reporter; HEK293 landing pad (RPLP)
Tick 1 if median log2 fold change is -0.07 or greater. Tick -1 if median log2 fold change is less than -0.07.

Worked set:
{"BINDER": "usp_38_diff_out_18_28_416 (protein) MMKEIEEKIEKLEKEADELIDKATEAMTKGFLKINEDPNSEELIEAINKLSDAVGKAAHAVNLARRNKNNPEAVEKYEKEFEKAKKEAEKELKKLEELIK", "ASSIGNED_LABEL": -1}
{"BINDER": "usp_38_diff_out_22_74_484 (protein) SAEEEETEKLRKEIEERKAETLARLEELRAAARAALAAGDERAARRLLAELDDLVTDTVIWLNKVALAHGAIHDYALETALEIRERATAIVAELEAALAA", "ASSIGNED_LABEL": 1}
{"BINDER": "usp_38_diff_out_16_25_200 (protein) SVEALLEAHDHLGEAAGHILRAKESKDEEEKKKLLEEAIKHLEKALKIMKEKLKIPEEVAEEIEKKIERAKKLLEEGAPFEEVIKELEEAIDLAAKALAA", "ASSIGNED_LABEL": 1}
{"BINDER": "usp_38_diff_out_22_164_479 (protein) SEEEILEKLKEEIEKLAEETKKKLEELAKKAKENPEKKEEYLKQMRMLVIQTQQKMGDLIDEAAKKYNLSEETVEELRSHRTVQSLKVLNYLDELEKELE", "ASSIGNED_LABEL": 1}
{"BINDER": "usp_38_diff_out_1_153_17 (protein) SRLEELKKRLEEILEEAKRLKEEIERLIAEGTMTREKVDEYADRLGKLAVEFREIRAEAAEDPEIYKELKELFKETEKALNEAVDALERAGRLVFLREAE", "ASSIGNED_LABEL": -1}
{"BINDER": "usp_38_diff_out_18_14_312 (protein) SEEEAEALLSSVEILTADVERDTARKIRLLEAAKDDPELVERIYERALRDLAGVEAYAEEVLAQAKAEGNAELEAAAQALLATVAAARARLEAAYAAVRA", "ASSIGNED_LABEL": 1}
{"BINDER": "usp_38_diff_out_15_85_150 (protein) TPEELKAEIEREIEEAERLLERAEELLRDPEAPLEEIRRVLDEAAEALGRADHLARELRRLSPEYRAYVEEVLKRLDELVDRLEELAREAFLREADELEA", "ASSIGNED_LABEL": 1}

Next, consider the following binder.
Enquiry: Would you say usp_38_diff_out_4_99_565 (protein) EKERMVEEVRRLTERARELLERARAAFELPPEERRRTAEELARELDELARRMGAIAFAARDSGDPELIKAVNEEADEFVDAYTEAATALNELRHLVLQEE shows median log2 fold change at minimum -0.07?
Return: 1
